FYI, the data here is from patent EP0584797A2.

// reported MIC per item
System: Escherichia coli ATCC 10536
Assay: minimal inhibitory concentration, two-fold agar dilution
Type: cell-based
Conditions: ATCC10536, Muller-Hinton agar, 37°C, 20 hours, read-out: MIC values against the standard strains
Experimental: These MIC values were taken by employing a two-fold dilution method: that is, two-fold serial dilutions of each of the test compounds were made and dispersed in a Muller-Hinton agar medium; 2µl of the standard test strain which had the 10⁷ CFU(Colony Forming Unit) per ml was inoculated on the medium; and these were incubated at 37°C for 20 hours.
Write the number in µg/mL without appending the unit.

The examples below pair each entry with its known result.
[
  {
    "compound": "CCO/N=C(\\C(=O)N[C@@H]1C(=O)N2C(C(=O)[O-])=C(CSc3nc(N)cc(OC)[n+]3C)CS[C@H]12)c1csc(N)n1",
    "MIC, µg/mL": 0.13
  },
  {
    "compound": "C[n+]1c(SCC2=C(C(=O)[O-])N3C(=O)[C@@H](NC(=O)/C(=N\\OC(C)(C)C(=O)O)c4csc(N)n4)[C@H]3SC2)nc(N)c2ccoc21",
    "MIC, µg/mL": 0.063
  },
  {
    "compound": "CCO/N=C(\\C(=O)N[C@@H]1C(=O)N2C(C(=O)[O-])=C(CSc3nc(N)c4ccoc4[n+]3C)CS[C@H]12)c1csc(N)n1",
    "MIC, µg/mL": 0.063
  },
  {
    "compound": "CO/N=C(\\C(=O)N[C@@H]1C(=O)N2C(C(=O)[O-])=C(CSc3nc(N)c(N)c(N)[n+]3C)CS[C@H]12)c1csc(N)n1",
    "MIC, µg/mL": 0.063
  },
  {
    "compound": "C[n+]1c(-c2ccccc2)cc(N)nc1SCC1=C(C(=O)[O-])N2C(=O)[C@@H](NC(=O)/C(=N\\OC(C)(C)C(=O)O)c3csc(N)n3)[C@H]2SC1",
    "MIC, µg/mL": 0.25
  },
  {
    "compound": "CCO/N=C(\\C(=O)N[C@@H]1C(=O)N2C(C(=O)[O-])=C(CSc3nc(N)cc[n+]3N)CS[C@H]12)c1csc(N)n1",
    "MIC, µg/mL": 0.031
  }
]

Return MIC (reported value) for this molecule: `C[n+]1ccc(N)nc1SCC1=C(C(=O)[O-])N2C(=O)[C@@H](NC(=O)/C(=N\O)c3csc(N)n3)[C@H]2SC1`
0.25

----------
Tested on: Providencia rettgeri ATCC 9250
Test: minimal inhibitory concentration, two-fold agar dilution
Assay type: cell-based
Settings: ATCC9250, Muller-Hinton agar, 37°C, 20 hours, read-out: MIC values against the standard strains
// reported MIC per item

[
  {
    "compound": "CC[n+]1ccc(N)nc1SCC1=C(C(=O)[O-])N2C(=O)[C@@H](NC(=O)/C(=N\\OC(C)(C)C(=O)O)c3csc(N)n3)[C@H]2SC1",
    "quantity-kind": "MIC",
    "result": "≤ 8 ng/mL"
  },
  {
    "compound": "CCO/N=C(\\C(=O)N[C@@H]1C(=O)N2C(C(=O)[O-])=C(CSc3nc(N)c4ccccc4[n+]3C)CS[C@H]12)c1csc(N)n1",
    "quantity-kind": "MIC",
    "result": "≤ 8 ng/mL"
  }
]

Now examine the next entry.
Please report MIC with Providencia rettgeri ATCC 9250 for item `CCO/N=C(\C(=O)N[C@@H]1C(=O)N2C(C(=O)[O-])=C(CSc3nc(N)c4ccoc4[n+]3C)CS[C@H]12)c1csc(N)n1` .
≤ 8 ng/mL

----------
System: Escherichia coli ATCC 10536
Experiment: minimal inhibitory concentration, two-fold agar dilution
Format: cell-based
Conditions: ATCC10536, Muller-Hinton agar, 37°C, 20 hours, read-out: MIC values against the standard strains
quantity-kind: MIC (µg/mL)
Write the number in µg/mL without appending the unit.

The examples below pair each entry with its known result.
[
  {
    "compound": "CCO/N=C(\\C(=O)N[C@@H]1C(=O)N2C(C(=O)[O-])=C(CSc3nc(N)cc[n+]3CC)CS[C@H]12)c1csc(N)n1",
    "MIC / µg/mL": 0.13
  },
  {
    "compound": "CC(C)(O/N=C(\\C(=O)N[C@@H]1C(=O)N2C(C(=O)[O-])=C(CSc3nc(N)c(N)c[n+]3N)CS[C@H]12)c1csc(N)n1)C(=O)O",
    "MIC / µg/mL": 0.031
  }
]

Return MIC (reported value) for this molecule: `CCO/N=C(\C(=O)N[C@@H]1C(=O)N2C(C(=O)[O-])=C(CSc3nc(N)c4cccnc4[n+]3C)CS[C@H]12)c1csc(N)n1`
0.25

Return MIC (reported value) for this molecule: `CCO/N=C(\C(=O)N[C@@H]1C(=O)N2C(C(=O)[O-])=C(CSc3nc(N)cc[n+]3CC)CS[C@H]12)c1nsc(N)n1`
0.031

Return MIC (reported value) for this molecule: `CCO/N=C(\C(=O)N[C@@H]1C(=O)N2C(C(=O)[O-])=C(CSc3nc(N)cc(OCC(=O)O)[n+]3C)CS[C@H]12)c1csc(N)n1`
0.063

Return MIC (reported value) for this molecule: `CC(C)(O/N=C(\C(=O)N[C@@H]1C(=O)N2C(C(=O)[O-])=C(CSc3nc(N)cc[n+]3N)CS[C@H]12)c1csc(N)n1)C(=O)O`
0.063
